Reference source for all entries: patent US20230266321A1

biological target: MEK-NL (Homo sapiens, UniProt Q02750); test: Tracer buildup curves on MEK-NLuc (NanoBRET); details: HEK293T cells, 2 hrs at 37° C.; read-out: binding affinity to MEK-NL (tracer buildup curves)
Sequence (Q02750 whole entry): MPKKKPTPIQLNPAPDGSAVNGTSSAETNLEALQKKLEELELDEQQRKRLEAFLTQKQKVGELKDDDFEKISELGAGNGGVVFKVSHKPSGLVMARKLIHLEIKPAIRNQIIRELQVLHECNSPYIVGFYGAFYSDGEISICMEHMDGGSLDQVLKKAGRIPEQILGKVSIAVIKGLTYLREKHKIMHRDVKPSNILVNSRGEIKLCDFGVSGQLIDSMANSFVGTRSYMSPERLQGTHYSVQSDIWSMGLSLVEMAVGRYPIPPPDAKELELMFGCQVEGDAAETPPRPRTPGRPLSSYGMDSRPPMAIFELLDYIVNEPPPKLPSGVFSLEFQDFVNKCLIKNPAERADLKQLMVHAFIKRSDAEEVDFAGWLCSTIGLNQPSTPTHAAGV
endpoint: EC50

Briefly, EC50 measured for Cc1c(=O)n(C)c(Nc2ccc(I)cc2F)c2c(=O)n(C3CC3)c(=O)n(-c3cccc(NC(=O)CCOCCOCCNC(=O)CCC4=[N+]5C(=Cc6ccc(-c7ccc[nH]7)n6[B-]5(F)F)C=C4)c3)c12 [Tram-bo] : 4.7 nM

* * *

biological target: mouse KSR1-luc (KSR-bound MEK) (UniProt Q02750+Q61097); test: NanoBRET in-cell steady-state competition with tram-bo on KSR1-luc; details: HEK293T cells, 1 µM tram-bo tracer, equilibrium binding, mean ± s.e.m.; read-out: steady-state IC50 against KSR1-luc
Sequence (Q61097 whole entry): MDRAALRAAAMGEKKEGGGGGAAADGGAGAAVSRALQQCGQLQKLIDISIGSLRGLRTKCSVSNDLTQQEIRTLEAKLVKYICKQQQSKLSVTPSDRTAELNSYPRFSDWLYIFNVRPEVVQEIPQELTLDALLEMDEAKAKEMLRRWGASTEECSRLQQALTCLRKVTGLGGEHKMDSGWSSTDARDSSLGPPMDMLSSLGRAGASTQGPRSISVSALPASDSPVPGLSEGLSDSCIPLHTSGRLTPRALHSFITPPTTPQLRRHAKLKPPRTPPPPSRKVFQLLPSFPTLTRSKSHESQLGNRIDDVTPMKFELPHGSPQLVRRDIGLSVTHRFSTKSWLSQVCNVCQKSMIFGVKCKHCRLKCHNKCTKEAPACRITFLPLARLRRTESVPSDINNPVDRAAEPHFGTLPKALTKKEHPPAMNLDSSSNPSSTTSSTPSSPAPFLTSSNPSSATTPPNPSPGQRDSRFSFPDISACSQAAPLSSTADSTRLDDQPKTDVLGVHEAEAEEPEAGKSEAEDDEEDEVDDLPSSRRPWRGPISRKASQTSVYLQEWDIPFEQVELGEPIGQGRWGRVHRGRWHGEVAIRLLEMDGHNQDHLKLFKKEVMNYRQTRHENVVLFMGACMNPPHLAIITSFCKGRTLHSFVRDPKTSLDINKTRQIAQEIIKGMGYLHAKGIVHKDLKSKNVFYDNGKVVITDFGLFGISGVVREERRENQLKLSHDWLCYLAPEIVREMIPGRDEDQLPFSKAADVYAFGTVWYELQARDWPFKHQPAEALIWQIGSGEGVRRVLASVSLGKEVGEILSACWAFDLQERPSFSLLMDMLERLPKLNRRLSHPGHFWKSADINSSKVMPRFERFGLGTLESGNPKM
Sequence (Q02750 whole entry): as the sequence (Q02750 whole entry) above
endpoint: pIC50
Please express pIC50 as -log10 of the molar concentration.

Briefly, pIC50 measured for O=C(c1ccc(F)c(F)c1Nc1ccc(I)cc1F)N1CC(O)([C@@H]2CCCCN2)C1 [cobimetinib] : 8.29
